# TEST: NCI Yeast Anticancer Drug Screen. Data for the wt1 strain (AID 149);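 further: 0% = growth of vehicle-treated wt1 cultures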
# ASSAY SETUP: S. cerevisiae wt1 strain (SPY 50644) growth inhibition; at 11.0 µM; stronger effect = higher value
The panel holds about 79,000 compounds, 15% with a hit somewhere; the sample as a whole holds those more often.
ATTRIBUTE MEASURED: growth inhibition (%)
Numbers only, in %.

Consider the reported growth inhibition for these compounds:
COc1ccc(OC)c2cc3ccccc3cc12
-12
O=C1C=CC(=C(c2ccccc2)c2ccccc2)c2ccccc21
1

Hi! Can you tell me growth inhibition for each of these compounds?
1. c1ccc(-c2ccnc3c2ccc2c(-c4ccccc4)ccnc23)cc1
2. C[C@@H]1C[C@H]2[C@@H]3CCC4=CC(=O)C=C[C@]4(C)[C@@]3(Cl)[C@@H](Cl)C[C@]2(C)[C@@]1(O)C(=O)COP(=O)(O)O
3. CCOC(=O)c1cnc2c(C(F)(F)F)cccc2c1N=[N+]=[N-]
4. CC(C(=O)N1C(=O)N(C(=O)[C@H](C)C(O)c2ccccc2)[C@H](c2ccccc2)[C@H]1c1ccccc1)[C@@H](O)c1ccccc1 (some centres undefined)
5. CC(C)[N+]([O-])(CCCNc1c2ccccc2nc2cccc([N+](=O)[O-])c12)C(C)C
6. c1ccc2c(c1)Oc1cccc3cccc-2c13
7. CCC(=O)Oc1c(Cl)cc(Cl)c2ccccc12
8. O=C1C2CC[C@@H]3C(=O)C(Cl)(Cl)[C@@H]3CCC2C1(Cl)Cl (some centres undefined)

Reply:
1: 9; 2: -3; 3: 1; 4: -2; 5: 18; 6: -8; 7: -4; 8: 2

* * *

Give growth inhibition for every item shown.
# TEST: NCI Yeast Anticancer Drug Screen. Data for the rad18 strain (AID 177)
# ASSAY SETUP: S. cerevisiae rad18 mutant growth inhibition; at 33.0 µM; stronger effect = higher value
This is part of a sample that, as a whole, favours compounds with a hit. Of some 79,000 tested, about 15% had one in any assay.
Numbers only, in %.

Consider the reported growth inhibition for these compounds:
O=C1c2cc([N+](=O)[O-])ccc2-c2cccc(F)c21
93
COc1ccc(NC(=S)N/N=C(\c2ccccc2)c2ccccn2)cc1
51
CC(C(=O)N1C(=O)N(C(=O)[C@H](C)C(O)c2ccccc2)[C@H](c2ccccc2)[C@H]1c1ccccc1)[C@@H](O)c1ccccc1 (stereo partly specified)
45
CN1Cc2ccccc2/C=C\c2ccccc21
47
Cc1ccc(S(=O)(=O)NC(=O)NC2=NC(C)(C)N(c3ccc(Cl)c(Cl)c3)C(N)=N2)cc1
1
O=[N+]([O-])c1ccc([N+]2=NC(c3ccccc3)=NN(c3ccccc3)C2)cc1
11

Hi! Can you tell me growth inhibition for each of these compounds?
1. C/C(=N\NC(=S)SCc1ccccc1)c1ccccn1
2. CCOC(=O)c1cc([N+](=O)[O-])cc([N+](=O)[O-])c1Sc1ncnc2nc[nH]c12
3. CCCCN(CCCC)CCSc1ccc(Cl)cc1
4. CCC(=O)Oc1c(Cl)cc(Cl)c2ccccc12
5. CC(=O)Nc1ccc(/C=C(\C#N)c2ccc(C)cc2)cc1

Reply:
96
81
2
5
-3

Hi! Can you tell me growth inhibition for each of these compounds?
1. c1ccc2c(c1)C(=NCCCN1CCCCCC1)c1cccn1-2
2. CC(C)=CC(=O)O[C@@H]1CC(C)(C)CC2C3=CCC4[C@]56CC[C@](O)(OC5)C(C)(C)C6CC[C@@]4(C)C3(C)CC[C@]21C(=O)O (stereo partly specified)
3. CN(C)c1nc2sc3c(c2c(=O)o1)CCCC3
4. COc1ccccc1C(=O)OCC1CCCN2CCCCC12 (stereo unspecified)
5. Cc1c(C2=C(Br)C(=O)N(C)C2=O)c(=O)n(C)c(=O)n1C
6. O=C(N=Nc1ccccc1Cl)NNc1ccccc1Cl
7. O=C(O)c1ccccc1NC(=S)c1ccccc1
8. CC1(C)C(=O)OC(n2cc(F)c(=O)[nH]c2=O)C1=O (stereo unspecified)

Reply:
1: 1; 2: 95; 3: 18; 4: 95; 5: 88; 6: 3; 7: 16; 8: 21

Hi! Can you tell me growth inhibition for each of these compounds?
1. Clc1ccc(SC(/C=C/NNC2=NC(c3ccccc3)C(c3ccccc3)=NN2)c2ccccc2)cc1 (stereo unspecified)
2. O=C1OC(=O)C2CCCC3CCCC1C32 (stereo unspecified)

Reply:
1. 41
2. 94

* * *

# TEST: NCI Yeast Anticancer Drug Screen. Data for the mec2-1 strain (AID 157)
# ASSAY SETUP: S. cerevisiae mec2-1 strain, at 11.0 µM, stronger effect = higher value
About 79,000 compounds went through this panel and 15% of them were active in at least one assay; those are over-represented in the sample as a whole.
Give growth inhibition for every item shown.
Numbers only, in %.

Consider the reported growth inhibition for these compounds:
O=C(CCCN1CCC(O)(c2ccc(Cl)cc2)CC1)c1ccc(F)cc1
29
Cc1nc(-[n+]2nc(-c3ccncc3)nn2-c2ccccc2)sc1C
-3
CCCCCCCCC/C=C/C=C/C(=O)NCC(=O)NC1C(O)C(O)C(Nc2ncnc3nc[nH]c23)OC1C(O)CO (stereo unspecified)
14
CN(N=O)N1C(=O)SCC(c2ccccc2)(c2ccccc2)C1=O
1
Clc1ccccc1C1OC1c1ccccc1Cl (stereo unspecified)
-94
Cc1ccc(N)c(S)c1
-9
O=C(O)C1CCCCC1c1c2ccc(=O)c(O)c-2oc2c(O)c(O)ccc12 (stereo unspecified)
-13
CCc1ncnc2cc(OCC3CO3)c(OC)cc12 (stereo unspecified)
22
CC[C@@]1(O)C(=O)OCc2c1cc1n(c2=O)Cc2cc3c(N)cccc3nc2-1
18
Cc1ccc(S(=O)(=O)NCCSS(=O)(=O)c2ccc(C)cc2)cc1
7

Now examine the next entry.
Ask: Query (compound): C=CCC1=C(C)C(OC(=O)/C=C/c2ccccc2)CC1=O (stereo unspecified) ; field requested: growth inhibition
Reply: -4

* * *

# TEST: NCI Yeast Anticancer Drug Screen. Data for the cln2 rad14 strain (AID 165);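 further: 0% = growth equal to vehicle treated cultures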
# ASSAY SETUP: S. cerevisiae cln2 rad14 strain, at 50.0 µM (retest, dose inferred, filed as 5.0), stronger effect = higher value
Compounds without any hit were thinned out: in the full panel of roughly 79,000, 15% have a hit.
ATTRIBUTE MEASURED: growth inhibition (%)
One number for each entry, in %.

Consider the reported growth inhibition for these compounds:
N#Cc1ccc(C2NN=CC23C(=O)c2ccccc2OC3c2ccccc2)cc1 (stereo not given)
38
CCC[CH2][Ge]([CH2]CCC)([CH2]CCC)[O]C(=O)C(OC)c1ccccc1 (stereo not given)
18
CN1c2ccc(Cl)cc2C(=O)NC1c1ccc([N+](=O)[O-])s1 (stereo not given)
96
O=C1C=CC(=C(c2ccccc2)c2ccccc2)c2ccccc21
86

Now examine the next entry.
Ask: Query (compound): Cn1c(=O)c(-c2ccccc2)c(N=[N+]=[N-])c2ccccc21 ; field requested: growth inhibition
Reply: 89

* * *

# TEST: NCI Yeast Anticancer Drug Screen. Data for the bub3 strain (AID 167)
# ASSAY SETUP: S. cerevisiae bub3 mutant strain, at 33.0 µM, stronger effect = higher value
# Procedure: Growth inhibition of yeast strains with defined genetic alterations is measured as a screen for potential anti-cancer activity. Selected strains with alterations in DNA damage repair or cell cycle control were exposed to compounds and growth inhibition was measured relative to vehicle treated controls. The strain used in this assay is bub3
This is part of a sample that, as a whole, favours compounds with a hit. Of some 79,000 tested, about 15% had one in any assay.
Give growth inhibition for every item shown.
One number for each entry, in %.

Consider the reported growth inhibition for these molecules:
CCN(CC)CC[n+]1ccc2c(C)c3[nH]c4ccc(O)cc4c3c(C)c2c1
-7
Cc1ccc(-c2ccc(Nc3c4ccccc4nc4ccccc34)cc2)cn1
79
CC(C(=O)N1C(=O)N(C(=O)[C@H](C)C(O)c2ccccc2)[C@H](c2ccccc2)[C@H]1c1ccccc1)[C@@H](O)c1ccccc1 (some centres undefined)
23
CCCCCCCCCCCCCCCCCCN(C)CC(COP(=O)([O-])OCC[N+](C)(C)C)OC (centres undefined)
98
CC(C)OC(=O)Oc1ccccc1OC(=O)OC(C)C
7
O=C([O][Sn]([O]C(=O)c1ccccc1)([c]1ccccc1)[c]1ccccc1)c1ccccc1
30
Fc1ccc(NC(=S)SCc2ccc3c(c2)OCO3)cc1F
98
NCCNc1ccc(NCCN)c2c1C(=O)c1c(O)ccc(O)c1C2=O
85

Hi! Can you tell me growth inhibition for each of these molecules?
1. COc1ccc(Br)c(C(=O)Sc2nnnn2-c2cccc(Cl)c2)c1
2. C=CC(C)(O)CCC1C(=C)C(O)CC2C(C)(C)CCCC12C (centres undefined)
3. O=C1CSC(/C=C/c2ccccc2)N1c1ccc(-c2ccc(-n3c(-c4ccccc4)nc4ccccc4c3=O)cc2)cc1 (centres undefined)
4. CSC(=S)N/N=C(\C)c1cccc(C)n1
5. CCCc1cc(C(=O)OCC)cc(CCC)c1O

Reply:
[8, 31, 35, 34, 63]

Hi! Can you tell me growth inhibition for each of these molecules?
1. NC(=S)N/N=C\c1nccc2ccccc12
2. O=[N+]([O-])c1cc(CCl)ccc1CCl
3. N#Cc1c(N)[nH]c2ccc(Sc3ccccc3)cc12
4. COc1cc(C2SCC(=O)N2c2ccc(-c3ccc(-n4c(-c5ccccc5)nc5ccccc5c4=O)cc3)cc2)cc(OC)c1OC (centres undefined)
5. COc1ccc(OC)c2cc3ccccc3cc12

Reply:
96
92
93
27
33

Hi! Can you tell me growth inhibition for each of these molecules?
1. c1ccc(-c2nc3cccnc3s2)cc1
2. CCCCN1C(=O)N(c2ccc(OCC)cc2)C2N(CCCC)C1C(C)(C)C2(C)C (centres undefined)
3. O=C(c1ccc(Cl)cc1Cl)C(Cl)Cl

Reply:
1: 10; 2: -11; 3: 80

Hi! Can you tell me growth inhibition for each of these molecules?
1. CCOc1ccc2c(c1)c(CC(=O)O)cn2C
2. S=C(Nc1ccc(Cl)cc1)SC1CCCCC1
3. [O-][n+]1c2ccc(O)cc2nc2ccc(Br)cc21

Reply:
[50, 93, 78]
